Reported fold change (FC) values are given for each entry in this list.
Tested on: Salmonella typhimurium
Experiment: Genotoxicity against Salmonella typhimurium TA98 assessed as fold increase in revertants at 0.3125 mg/ml after 90 mins by Ames MPF test in presence of S9 fraction relative to baseline
Assay type: toxicity, organism-based
Details: salmonella enterica subsp. enterica serovar typhimurium, s9, 1.5 h
Lab note: jot the number down without any unit.

Find the measured fold change (FC) of Cn1nnnc1SCC(=O)N/N=C/c1ccc(O)cc1 and report it.
0.53

Input CN(C)c1ccc(/C=N/NC(=O)CSc2nnnn2C)cc1 , output reported fold change (FC).
0.57

Note fold change (FC) for the compound shown: COc1ccc(/C=N/NC(=O)CSc2nnnn2C)cc1
0.84

Return value of fold change (FC) for input Cn1nnnc1SCC(=O)N/N=C/c1ccccc1[N+](=O)[O-] , no commentary.
1.22

Now for a further compound.
Return the recorded fold change (FC) value; entry: Cn1nnnc1SCC(=O)N/N=C/c1ccccc1F
0.71

====

System: Salmonella typhimurium
Test: Genotoxicity against Salmonella typhimurium TA100 assessed as fold increase in revertants at 0.156 mg/ml after 90 mins by Ames MPF test in absence of S9 fraction relative to baseline
Type: toxicity, organism-based
Conditions: salmonella enterica subsp. enterica serovar typhimurium, 1.5 h
Recorded endpoint: fold change (FC)
Would you mind answering with just the numeric figure?

Guide cases for fold change (FC), answers given:
Annotate the compound Cn1nnnc1SCC(=O)N/N=C/c1ccccc1F with its measured fold change (FC).
0.23

Determine its reported fold change (FC): COc1ccc(/C=N/NC(=O)CSc2nnnn2C)cc1
0.7

Give the reported fold change (FC) for this compound. Cn1nnnc1SCC(=O)N/N=C/c1ccccc1[N+](=O)[O-]
1.67

Further cases:
Report fold change (FC) for Cn1nnnc1SCC(=O)N/N=C/c1ccc(O)cc1
0.66

Entry CN(C)c1ccc(/C=N/NC(=O)CSc2nnnn2C)cc1 needs its fold change (FC) filled in; supply it.
1.9

====

Recorded Ratio by entry
System: Salmonella typhimurium
Assay: Genotoxicity against Salmonella typhimurium TA1535/pSK1002 assessed as growth factor ratio at 2.5 mg/ml by umuC assay in absence of S9 fraction
Format: toxicity, organism-based
Conditions: salmonella enterica subsp. enterica serovar typhimurium
Quick one: just the number, no unit, thanks!

Note Ratio for the molecule shown: Cn1nnnc1SCC(=O)N/N=C/c1ccccc1F
1.559

***
Could you please provide reported Ratio for Cn1nnnc1SCC(=O)N/N=C/c1ccc(O)cc1 ? Thanks!
1.397

Given COc1ccc(/C=N/NC(=O)CSc2nnnn2C)cc1 , respond with its Ratio.
1.166

Given Cn1nnnc1SCC(=O)N/N=C/c1ccccc1[N+](=O)[O-] , respond with its Ratio.
1.03

Look up and state reported Ratio for CN(C)c1ccc(/C=N/NC(=O)CSc2nnnn2C)cc1
1.743

====

System: Salmonella typhimurium
Assay: Genotoxicity against Salmonella typhimurium TA100 assessed as fold increase in revertants at 2.5 mg/ml after 90 mins by Ames MPF test in presence of S9 fraction relative to baseline
Type: toxicity, organism-based
Conditions: salmonella enterica subsp. enterica serovar typhimurium, s9, 1.5 h
The label Fulfilled is reserved for fold change (FC) strictly under 0.6; Not fulfilled covers values equal to or above it.

Reference set, count: 3
For CN(C)c1ccc(/C=N/NC(=O)CSc2nnnn2C)cc1 , is the recorded fold change (FC) below the cut-off of 0.6?
Fulfilled

Check if fold change (FC) falls below 0.6 for Cn1nnnc1SCC(=O)N/N=C/c1ccc(O)cc1 .
Not fulfilled

Strictly below 0.6 in fold change (FC)? COc1ccc(/C=N/NC(=O)CSc2nnnn2C)cc1
Not fulfilled

Others:
Criterion: fold change (FC) strictly below 0.6. Is it met by Cn1nnnc1SCC(=O)N/N=C/c1ccccc1F ?
Not fulfilled

# TODO verify fold change (FC) < 0.6 strictly for this molecule: Cn1nnnc1SCC(=O)N/N=C/c1ccccc1[N+](=O)[O-]
Not fulfilled
